This collection of values is drawn from the Kinase Knowledgebase extract (Sharma et al. 2016).

pKi: −log10 of the molar value.
Below are compounds with their pKi as measured on PIK3CG (human).

COCc1cc(N2Cc3nc(-c4cnc(OC)c(OC)c4)ccc3C2=O)nn1CC(F)(F)F : > 7.00

Sample COc1cc(-c2cc(C)c3c(n2)C(O)(OC)N(c2cnn(CC(F)(F)F)c2)C3=O)cnc1OC (centres undefined) — what was its pKi?
> 7.00

Requested read-out: pKi. Entry: `CCOc1cncc(-c2cc(C)c3c(n2)C(C)(C)N(c2cnn(CC(F)F)c2)C3=O)c1`
> 7.00

# get_value(readout='pKi', item= `CCCCn1cc(N2Cc3cc(-c4cnc(OC)c(OC)c4)ccc3C2=O)cn1` )
6.31 to 7.00

Fill in: pKi of `COc1cc(-c2ccc3c(n2)CN(c2cncs2)C3=O)cnc1OC` is ___
> 7.00

I'd like to know its pKi. The compound in question is `COc1cc(-c2cc(C)c3c(n2)CN(c2cnn(CC#N)c2)C3=O)cnc1OC`
> 7.00

# query: pKi of entry `CC(=O)Nc1cncc(-c2cc(C)c3c(n2)C(C)(C)N(c2cnn(CC(F)(F)F)c2)C3=O)c1`
> 7.00

Entry `COc1cc(-c2ccc3c(n2)CN(c2cnn(CC4CCN(C(=O)OC(C)(C)C)CC4)c2)C3=O)cnc1OC` : reported pKi = ?
6.31 to 7.00

Which pKi is reported for this compound? Cc1cc(-c2cncc(C(=O)NC(C)C)c2)nc2c1C(=O)N(c1cnn(CC(F)(F)F)c1)C2C (centres undefined)
> 7.00

====

Items are presented alongside their recorded pKi.
molecular target: PIK3CG (human) (UniProt P48736)
Sequence (P48736 whole entry, looked up): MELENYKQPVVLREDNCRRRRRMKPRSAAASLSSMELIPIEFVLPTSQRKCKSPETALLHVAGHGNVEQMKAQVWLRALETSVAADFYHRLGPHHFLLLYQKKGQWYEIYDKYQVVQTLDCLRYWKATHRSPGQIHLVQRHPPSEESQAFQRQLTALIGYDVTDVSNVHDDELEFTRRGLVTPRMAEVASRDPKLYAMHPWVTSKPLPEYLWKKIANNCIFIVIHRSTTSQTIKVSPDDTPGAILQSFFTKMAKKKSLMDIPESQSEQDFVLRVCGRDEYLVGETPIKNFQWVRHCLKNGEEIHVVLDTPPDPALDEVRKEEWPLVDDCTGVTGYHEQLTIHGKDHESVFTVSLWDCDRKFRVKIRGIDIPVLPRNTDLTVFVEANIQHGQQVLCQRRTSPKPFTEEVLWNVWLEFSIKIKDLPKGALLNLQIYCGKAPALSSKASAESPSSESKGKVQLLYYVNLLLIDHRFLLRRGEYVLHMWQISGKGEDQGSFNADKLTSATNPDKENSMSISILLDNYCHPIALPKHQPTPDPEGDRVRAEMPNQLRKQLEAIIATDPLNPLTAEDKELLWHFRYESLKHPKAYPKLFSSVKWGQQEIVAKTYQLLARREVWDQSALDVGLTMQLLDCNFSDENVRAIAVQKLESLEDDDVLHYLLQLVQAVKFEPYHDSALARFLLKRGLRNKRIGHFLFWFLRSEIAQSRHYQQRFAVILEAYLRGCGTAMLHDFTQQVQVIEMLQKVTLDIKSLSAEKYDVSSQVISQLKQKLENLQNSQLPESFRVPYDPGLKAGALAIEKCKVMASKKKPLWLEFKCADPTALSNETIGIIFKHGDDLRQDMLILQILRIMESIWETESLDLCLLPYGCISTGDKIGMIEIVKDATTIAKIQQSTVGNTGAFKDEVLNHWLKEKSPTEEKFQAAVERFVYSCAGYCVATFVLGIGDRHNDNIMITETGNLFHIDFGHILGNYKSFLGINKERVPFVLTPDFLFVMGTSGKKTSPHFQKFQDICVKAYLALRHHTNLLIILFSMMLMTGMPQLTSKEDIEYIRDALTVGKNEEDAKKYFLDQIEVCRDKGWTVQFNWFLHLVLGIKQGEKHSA
pKi: −log10 of the molar value.

# example entries with known answers
COc1cc(-c2ccc3c(n2)C(C)N(c2ccnc(C(C)(C)C#N)c2)C3=O)cnc1OC (stereo not given) : 6.31 to 7.00
COc1cc(-c2ccc3c(n2)CN(c2cnn(CC4CCCN4)c2)C3=O)cnc1OC (stereo not given) : 6.31 to 7.00
Cc1cc(-c2cncc(CO)c2)nc2c1C(=O)N(c1cnn(CC(F)(F)F)c1)C2 : > 7.00
COc1cc(-c2ccc3c(n2)[C@@H](C)N(c2ccn(CC(C)(C)F)n2)C3=O)cnc1OC : > 7.00
COc1cc(-c2cc(C)c3c(n2)[C@@]2(CCCO2)N(c2cnn(CC(F)(F)F)c2)C3=O)cnc1OC : > 7.00

API: value(readout=pKi, system=PIK3CG (human) (UniProt P48736)) for record `COc1cc(OC)c(-c2cc(C)c3c(n2)CN(c2cnn(CC(F)(F)F)c2)C3=O)cn1`
> 7.00

Requested read-out pKi, target or system PIK3CG (human) (UniProt P48736), entry `Cc1cc(-c2cncc(OCC(F)F)c2)nc2c1C(=O)N(c1ccn([C@H]3CCOC3)n1)C2`
> 7.00

State its pKi on PIK3CG (human) (UniProt P48736): `COc1cc(-c2cc(C)c3c(n2)CN(c2ccn([C@H]4CCOC4)n2)C3=O)cnc1F`
> 7.00

# get_value(readout= pKi, system= PIK3CG (human) (UniProt P48736)) for `COCCOCCOc1ncc(-c2cc(C)c3c(n2)CN(c2cnn(CC#N)c2)C3=O)cc1OC`
> 7.00

Missing value: pKi, PIK3CG (human) (UniProt P48736), entry `COc1cc(-c2cc(C)c3c(n2)CN(c2cncc(F)c2)C3=O)cnc1OC` . Fill in?
> 7.00

====

Target or system PIK3CG (human) (UniProt P48736): recorded Ki listed per item.

Worked cases, answers included:
COc1cncc(-c2cc(C)c3c(n2)CN(c2cc[nH]n2)C3=O)c1 : < 100 nM
COc1cc(-c2cc(C)c3c(n2)CN(c2cncc(OCCO)c2)C3=O)cnc1OC : < 100 nM
CCn1cc(N2Cc3nc(-c4ccc(OC)c(OC)c4)cc(C)c3C2=O)cn1 : < 100 nM

Here is the next item to consider.
Form: Entry = `CCc1cc(N2Cc3nc(-c4cncc(OC(F)F)c4)ccc3C2=O)nn1C[C@H](C)O` | System = PIK3CG (human) (UniProt P48736) | Ki = ____
100 to 490 nM

====

The reader will find pKi measurements below, all made with PIK3CG (human).
pKi: −log10 of the molar value.

COc1cc(-c2ccc3c(n2)C2(CCOCC2)N(c2cnn(CC(F)(F)F)c2)C3=O)cnc1OC : > 7.00
COc1cncc(-c2cc(C)c3c(n2)C(C)N(c2ccn([C@@H]4CCOC4)n2)C3=O)c1 (stereo not given in full) : > 7.00
COc1cc(-c2ccc3c(n2)CN(c2ccon2)C3=O)cnc1O : 6.31 to 7.00
CCCOc1cc(-c2cc(C)c3c(n2)CN(c2ccn(CC)n2)C3=O)cnc1OC : > 7.00

The record that follows has no pKi shown yet.
Request body: readout pKi, system PIK3CG (human), query `COc1cc(-c2cc(C)c3c(n2)[C@H](OC)N(c2cnn(CC(F)(F)F)c2)C3=O)cnc1OC` . Return the value.
> 7.00

====

# pKi per record follows
molecular target: PIK3CG (human)
pKi: −log10 of the molar value.

CCOc1ncc(-c2cc(C)c3c(n2)CN(c2cnn(CC)c2)C3=O)cc1OC : > 7.00
COc1cc(-c2ccc3c(c2)CN(c2cc(C)n(C)n2)C3=O)cnc1OC : 6.31 to 7.00
CCOc1ncc(-c2cc(C)c3c(n2)[C@]2(CCCO2)N(c2cnn(CC(F)(F)F)c2)C3=O)cc1OC : > 7.00

What measured pKi is associated with `COCCn1cc(N2Cc3nc(-c4cnc(OC)c(OC)c4)ccc3C2=O)cn1` on PIK3CG (human)?
> 7.00

Kindly state the measured pKi obtained for Cc1cc(-c2cncc(OC(F)F)c2)nc2c1C(=O)N(c1cnn(CC(F)(F)F)c1)C2(C)O (centres undefined) with PIK3CG (human).
> 7.00

====

// pKi collected for PIK3CG (human) (UniProt P48736)
pKi: −log10 of the molar value.

Here are 4 compounds together with their reported answers.
Cc1cc(-c2cncc(N)c2)nc2c1C(=O)N(c1cnn(CC(F)(F)F)c1)C2(C)C : > 7.00
COc1cc(OC)cc(-c2cc(C)c3c(n2)CN(c2cnn(CC#N)c2)C3=O)c1 : > 7.00
COc1cc(-c2ccc3c(n2)CN(c2ccc(N4CCC(F)CC4)nc2)C3=O)cnc1OC : > 7.00
CCOc1ncc(-c2ccc3c(n2)CN(c2cnn(CC#N)c2)C3=O)cc1OC : > 7.00

Here's the next entry for you.
Please state recorded pKi (tested on PIK3CG (human) (UniProt P48736)) of `COc1cc(-c2cc(C)c3c(n2)CN(c2ccn(C(C)(C)C#N)n2)C3=O)cnc1OC`
> 7.00

====

Entries with their measured pKi, system UniProt P48736:
pKi: −log10 of the molar value.

Reference set, count: 2
COc1cc(-c2ccc3c(n2)CN(c2cnn(Cc4ccc(CO)cc4)c2)C3=O)cnc1OC : > 7.00
COCCn1cc(N2Cc3nc(-c4cnc(OC)c(OC)c4)ccc3C2=O)ccc1=O : 6.31 to 7.00

Query: pKi; subject: `Cc1cc(-c2cc(C)c3c(n2)CN(c2cnn(CC(F)(F)F)c2)C3=O)ccn1`
> 7.00

// lookup pKi for `COc1cc(-c2ccc3c(c2)CN(c2cccc(C(N)=O)c2)C3=O)cnc1OC`
> 7.00

Query (compound): `COc1cc(-c2cc(C)c3c(n2)CN(c2nc(C)cs2)C3=O)cnc1OC` ; field requested: pKi
> 7.00

====

Test system PIK3CG (human), Ki listed for each of the molecules.

Answered cases to consult:
Cc1cc(-c2cncc(C(=O)NCC3CC3)c2)nc2c1C(=O)N(c1cnn(CC(F)(F)F)c1)C2(C)C : < 100 nM
COc1ncc(-c2cc(C)c3c(n2)C(C)(C)N(c2cnn(CC(F)(F)F)c2)C3=O)cc1C(=O)NCC(C)(C)O : < 100 nM
COc1ccc(-c2cc(C)c3c(c2)CN(c2cnn(CC(F)(F)F)c2)C3=O)nc1OC : < 100 nM
Cc1cc(-c2cncc(OC(F)F)c2)nc2c1C(=O)N(c1cnn(CC(F)(F)F)c1)[C@H]2C : < 100 nM
CCOc1cc(-c2cc(C)c3c(n2)CN(c2cnn(CC#N)c2)C3=O)cnc1OCC : < 100 nM
COc1cc(-c2ccc3c(n2)CN(c2cnn(Cc4cncn4C)c2)C3=O)cnc1OC : < 100 nM
COc1cc(-c2cc(C)c3c(n2)C(C)N(c2cnn(C[C@H](C)O)c2)C3=O)cnc1OC (some centres undefined) : < 100 nM
CCOc1cc(-c2cc(C)c3c(c2)CN(c2cnn(CC(F)(F)F)c2)C3=O)cnc1OCC : < 100 nM

We next turn to a different molecule, shown below.
Look up Ki with PIK3CG (human) for this molecule: `C=C(F)Cn1cc(N2C(=O)c3c(C)cc(-c4cncc(OC)c4)nc3C2(C)C)cn1`
< 100 nM
